# Protocol Notes: Quantity of drug impregnated in stents by scCO2 (UV-spectroscopy after degradation in AUS)
# Type: physicochemical
# Condition Set: DrugCom: commercial non-degradable stent with co-solvent; 90 min, 100 bar, 40° C.
Quantity Name: Quantity of drug impregnated by scCO2 (μgdrug/mgpolymer)

COc1cccc2c1C(=O)c1c(O)c3c(c(O)c1C2=O)C[C@@](O)(C(=O)CO)C[C@@H]3O[C@H]1C[C@H](N)[C@H](O)[C@H](C)O1 : 0.208
Nc1ccn([C@@H]2O[C@H](CO)[C@@H](O)C2(F)F)c(=O)n1 : 2.312

a: COc1cccc2c1C(=O)c1c(O)c3c(c(O)c1C2=O)C[C@@](O)(C(=O)CO)C[C@@H]3O[C@H]1C[C@H](N)[C@@H](O)[C@H](C)O1 [Epirubicin, epirubicin]
b: CC(=O)O[C@H]1C(=O)[C@@]2(C)[C@H]([C@H](OC(=O)c3ccccc3)[C@]3(O)C[C@H](OC(=O)[C@H](O)[C@@H](NC(=O)c4ccccc4)c4ccccc4)C(C)=C1C3(C)C)[C@]1(OC(C)=O)CO[C@@H]1C[C@@H]2O
Which of the two gives a bigger number for Quantity of drug impregnated by scCO2: a or b ? Returns: label corresponding to the selected item.
a

Hello, the source for this data is patent US11998665B2, in case you need it.
